Reference source: patent US20060257938A1

- PROTOCOL DESCRIPTION: Probe fluorescence ratio response to linolenic acid relative to ADIFAB2
- Assay type: binding
- SETUP CONDITIONS: response relative to ADIFAB2
MEASURED ATTRIBUTE: DR/DR LNA

# MOLECULE, VAL
rows = [
    ("14P, 72A (protein, listed as Rattus norvegicus, PEPTIDE (1)...(131) wild-type rat intestinal fatty acid binding protein) AFDGTWKVDRNENPEKFMEKMGINVVKRKLGAHDNLKLTITQEGNKFTVKESSNFRNIDVVFELGVDFAYSAADGTELTGTWTMEGNKLVGKFKRVDNGKELIAVREISGNELIQTYTYEGVEAKRIFKKE", 0.64),
    ("106Q, 72A (protein, listed as Rattus norvegicus, PEPTIDE (1)...(131) wild-type rat intestinal fatty acid binding protein) AFDGTWKVDRNENYEKFMEKMGINVVKRKLGAHDNLKLTITQEGNKFTVKESSNFRNIDVVFELGVDFAYSAADGTELTGTWTMEGNKLVGKFKRVDNGKELIAVQEISGNELIQTYTYEGVEAKRIFKKE", 0.38),
    ("17Q, 72A (protein, listed as Rattus norvegicus, PEPTIDE (1)...(131) wild-type rat intestinal fatty acid binding protein) AFDGTWKVDRNENYEKQMEKMGINVVKRKLGAHDNLKLTITQEGNKFTVKESSNFRNIDVVFELGVDFAYSAADGTELTGTWTMEGNKLVGKFKRVDNGKELIAVREISGNELIQTYTYEGVEAKRIFKKE", 0.59),
]
